Can you tell me inhibition for the items I'm about to list?
System: Platelet-derived growth factor receptor alpha (Homo sapiens), P16234 [T674I]
Sequence (P16234 whole entry T674I): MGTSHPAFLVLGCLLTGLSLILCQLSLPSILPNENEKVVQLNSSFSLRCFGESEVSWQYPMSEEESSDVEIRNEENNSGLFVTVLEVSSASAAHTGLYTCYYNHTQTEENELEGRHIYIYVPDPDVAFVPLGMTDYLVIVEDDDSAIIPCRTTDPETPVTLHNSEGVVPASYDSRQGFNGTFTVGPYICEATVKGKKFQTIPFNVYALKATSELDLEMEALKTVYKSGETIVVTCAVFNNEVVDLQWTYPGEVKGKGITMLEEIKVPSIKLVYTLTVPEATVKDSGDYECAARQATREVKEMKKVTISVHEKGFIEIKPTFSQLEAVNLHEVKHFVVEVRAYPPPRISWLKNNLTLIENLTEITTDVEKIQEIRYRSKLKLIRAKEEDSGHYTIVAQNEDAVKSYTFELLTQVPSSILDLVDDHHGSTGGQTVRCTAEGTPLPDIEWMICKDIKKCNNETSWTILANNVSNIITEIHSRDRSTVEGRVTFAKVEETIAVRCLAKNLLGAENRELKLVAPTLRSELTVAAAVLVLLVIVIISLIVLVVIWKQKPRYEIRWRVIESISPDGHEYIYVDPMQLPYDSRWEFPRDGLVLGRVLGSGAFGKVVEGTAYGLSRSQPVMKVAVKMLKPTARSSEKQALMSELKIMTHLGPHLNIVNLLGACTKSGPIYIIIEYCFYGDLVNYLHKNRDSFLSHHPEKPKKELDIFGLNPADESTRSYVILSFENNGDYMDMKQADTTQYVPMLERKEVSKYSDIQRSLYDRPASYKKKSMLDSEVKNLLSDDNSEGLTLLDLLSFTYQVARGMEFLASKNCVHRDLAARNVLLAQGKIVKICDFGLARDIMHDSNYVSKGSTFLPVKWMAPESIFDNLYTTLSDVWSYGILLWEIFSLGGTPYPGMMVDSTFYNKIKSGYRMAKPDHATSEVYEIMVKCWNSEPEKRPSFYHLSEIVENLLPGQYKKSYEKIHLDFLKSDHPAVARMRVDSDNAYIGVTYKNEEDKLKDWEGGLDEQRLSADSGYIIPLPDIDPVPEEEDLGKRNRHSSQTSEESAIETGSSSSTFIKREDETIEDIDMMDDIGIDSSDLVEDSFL
cond: at 0.1 µM
Give bare numbers, in %.

Example compounds with recorded inhibition:
> print(dat)
                                   compound  endpointresult
1      Cc1cc(O)cc(C)c1/C=C/c1cncc(C(N)=O)c1            4.15
2  CC1=C(C(=O)Nc2ccc3[nH]ncc3c2)C(c2ccc(F)cc2)N=C(c2ccc(C(F)(F)F)nc2)N1 (configuration not stated)            3.34

Hello, I would appreciate it if you could give inhibition for each entry below.
1. NS(=O)(=O)c1ccc(N/N=C2\C(=O)Nc3ccc(C(=O)NCc4ccncc4)cc32)cc1
2. CNC(=O)c1sc(-n2cnc3cc(OC)c(OC)cc32)cc1OCc1ccccc1C(F)(F)F
3. c1ccc(-c2n[nH]cc2-c2ccnc(-c3ccc(OCCn4ccnc4)cc3)c2)nc1
4. CC1=C(C(=O)Nc2ccc3[nH]nc(C)c3c2)C(c2ccc(C(F)(F)F)cc2)CC(=O)N1 (configuration not stated)
5. CN(C)CCNC(=O)Nc1ccc(N(C)c2ccnc(Nc3ccc(CS(C)(=O)=O)cc3)n2)cc1

1. 3.72
2. 4.17
3. 6.06
4. 2.02
5. 9.77

###

tgt: MAP/microtubule affinity-regulating kinase 3 (Homo sapiens)
cond: at 1 µM
measuredEndpoint: inhibition (%)
Numbers only, in %.

Answered cases to consult:
> print(dat)
                                   compound  endpointresult
1    Cc1ccc(-c2cc3c(NC(=O)C4CC4)ncnc3o2)cc1             7.2
2      Cc1cc(O)cc(C)c1/C=C/c1cncc(C(N)=O)c1            3.59
3  CN1CCC(n2cnc(-c3ccc(F)cc3)c2-c2ccnc(NCCO)n2)CC1            6.04
4  CC(C)c1ccc(-c2cc(-c3c[nH]nc3-c3ccccn3)ccn2)cc1            0.71
5  COc1ccccc1-c1cc(/C=C2\C(=O)Nc3ncc(Br)cc32)cc(Br)c1O            1.27
6  CCN1CCC(C(=O)Nc2n[nH]c3nnc(-c4cccc(F)c4F)cc23)CC1            1.76

Batch lookup, inhibition per entry.
1. OCCCNc1nccc(-c2c(-c3ccc(F)cc3)nn3cc(C(F)(F)F)ccc23)n1
2. N#Cc1ccc2c(-c3ccnc(NC4CC4)n3)c(-c3ccc(F)cc3)nn2c1
3. CS(=O)(=O)CCNCc1ccc(-c2ccc3ncnc(Nc4ccc(OCc5ccccc5)cc4)c3c2)o1
4. CC1=C(C(=O)Nc2ccc3[nH]nc(C)c3c2)C(c2ccc(C(F)(F)F)cc2)CC(=O)N1 (stereo not drawn)
5. CNC(=O)c1ncccc1Nc1nc(Nc2cc3c(cc2OC)CCCN3C(=O)CN(C)C)nc2[nH]ccc12
6. CC1=C(C(=O)Nc2ccc3[nH]ncc3c2)C(c2ccc(F)cc2)N=C(c2ccc(C(F)(F)F)nc2)N1 (stereo not drawn)
7. COc1cc(Nc2ncc(-c3ccccc3)o2)cc(OC)c1

[3.84, 0.43, -0.22, 5.26, 3.77, 1.71, 2.48]

Please state, for each entry, its recorded inhibition.
1. COc1cc2c(cc1Nc1nc(Nc3cccc(F)c3C(N)=O)c3cc[nH]c3n1)N(C(=O)CN1CCN(C(C)C)CC1)CC2
2. Fc1cccc(COc2ccc(Nc3ncncc3C#Cc3ccccc3)cc2Cl)c1
3. Fc1ccc(Nc2nccc(-c3c(-c4ccc(C(F)(F)F)cc4)nn4ncccc34)n2)cc1F
4. O=C(O[C@H]1CN[C@H](C#Cc2cc3ncnc(Nc4ccc5c(cnn5Cc5ccccc5)c4)c3s2)C1)N1CCOCC1
5. CCCNc1cccc(-n2ncc3c(N/N=C/c4ccncc4)ncnc32)c1
6. CNC(=O)c1cncc(/C=C/c2ccccc2C)c1
7. COc1c(C(N)=O)cc(-c2ccc(Cl)cc2)cc1-c1ccc(S(N)(=O)=O)cc1
8. CCn1c(-c2nonc2N)nc2cncc(C(=O)NCCNC)c21

1: 3.29; 2: 4.26; 3: 3.91; 4: 2.28; 5: 9.23; 6: 6.03; 7: 2.07; 8: 16.6

Provide inhibition values for the following items, in order.
1. O=C(O[C@H]1CN[C@H](C#Cc2cc3ncnc(Nc4ccc5c(ccn5Cc5cc(F)ccc5F)c4)c3s2)C1)N1CCOCC1
2. COc1cccc(Nc2nccc(-c3cnn4ncccc34)n2)c1
3. NS(=O)(=O)c1ccc(N/N=C2\C(=O)Nc3ccc(C(=O)NCc4ccncc4)cc32)cc1
4. Cc1cc(O)cc(C)c1/C=C/c1cncc(C(=O)OC(C)(C)C)c1
5. COc1ccc2ncn(-c3cc(O[C@H](C)c4ccccc4C(F)(F)F)c(C(N)=O)s3)c2c1
6. NC(=O)c1ccc2c(-c3ccnc(NCCCO)n3)c(-c3ccc(F)cc3)nn2c1

1. 1.49
2. 29.6
3. 34.4
4. 1.89
5. 1.97
6. 21.9

Field: inhibition (MAP/microtubule affinity-regulating kinase 3 (Homo sapiens)). Entry: CNC(=O)c1sc(-n2cnc3cc(OC)c(OC)cc32)cc1OCc1ccccc1C(F)(F)F
3.64

###

tgt: ALK tyrosine kinase receptor (Homo sapiens)
cond: at 0.1 µM
Description: GSK_PKIS: ALK mean inhibition at 0.1 uM [Nanosyn]
measuredEndpoint: inhibition
Remember to put the unit after the number in your answer.

Use the examples below as a reference point.
> print(dat)
                                givensmiles  endpointresult
1  CS(=O)(=O)CCNCc1ccc(-c2ccc3ncnc(Nc4ccc(OCc5cccc(C(F)(F)F)c5)cc4)c3c2)o1              3%
2    c1cnn2ncc(-c3ccnc(NCCCN4CCOCC4)n3)c2c1           2.15%

Report inhibition for OCCCNc1nccc(-c2c(-c3ccc(F)cc3)nn3cc(C(F)(F)F)ccc23)n1 please.
1.23%

###

What inhibition was measured for each of the following?
tgt: Cyclin-dependent kinase 2 (Homo sapiens) (UniProt P24941)
cond: at 1 µM
Answers are plain numbers, in %.

> print(dat)
                                givensmiles  endpointresult
1  CCCNc1cccc(-n2ncc3c(N/N=C/c4ccncc4)ncnc32)c1            42.1
2  COc1ccccc1-c1cc(/C=C2\C(=O)Nc3ncc(Br)cc32)cc(Br)c1O           -1.47

Okay, next one:
What value of measured inhibition is listed for CN1CCC(n2cnc(-c3ccc(F)cc3)c2-c2ccnc(NCCO)n2)CC1 ?
-0.92

###

tgt: Serine/threonine-protein kinase pim-3 (Homo sapiens)
cond: at 1 µM
Description: GSK_PKIS: PIM3 mean inhibition at 1 uM [Nanosyn]
I'd appreciate it if you could supply inhibition values for the items below.
Give bare numbers, in %.

> print(dat)
                                   compound  endpointresult
1  CS(=O)(=O)CCNCc1ccc(-c2ccc3ncnc(Nc4ccc(OCc5cccc(C(F)(F)F)c5)cc4)c3c2)o1            4.36
2  COc1cccc(-n2ncc3c(N/N=C/c4ccc(C(=O)NCCN(C)C)cc4)ncnc32)c1            3.82
3  COC(=O)Nc1nc2cc(Oc3ccc(NC(=O)Nc4ccccc4)cc3)ccc2[nH]1            0.79
4  O=C(O[C@H]1CN[C@H](C#Cc2cc3ncnc(Nc4ccc5c(cnn5Cc5ccccc5)c4)c3s2)C1)N1CCOCC1           -0.59
5  COc1cc2c(cc1Nc1nc(Nc3cccc(F)c3C(N)=O)c3cc[nH]c3n1)N(C(=O)CN1CCN(C(C)C)CC1)CC2            1.84
6  CCCNc1cccc(-n2ncc3c(N/N=C/c4ccncc4)ncnc32)c1            4.06
7  OCCCNc1nccc(-c2c(-c3ccc(F)cc3)nn3cc(C(F)(F)F)ccc23)n1           -0.18
8  CS(=O)(=O)Nc1ccc(-c2cc(-c3ccccc3)cc(C(N)=O)c2N)cc1            1.22

Each of the following entries comes with a recorded value; kindly state inhibition for each.
1. O=C(Nc1n[nH]c2nnc(-c3cccnc3)cc12)C1CC1
2. COc1ccc(Nc2ncc(-c3ccccc3)o2)cc1OC
3. CS(=O)(=O)CCNCc1ccc(-c2ccc3ncnc(Nc4ccc(OCc5ccccc5)cc4)c3c2)o1
4. CNC(=O)c1sc(-n2cnc3cc(OC)c(OC)cc32)cc1OCc1ccccc1C(F)(F)F
5. CN1CCC(n2cnc(-c3ccc(F)cc3)c2-c2ccnc(NCCO)n2)CC1
6. NS(=O)(=O)c1ccc(N/N=C2\C(=O)Nc3cccc(CCc4ccncc4)c32)cc1

[69.7, 1.57, 1.6, -0.33, 5.22, 0.75]

For every listed record, write down its inhibition.
1. CC1=C(C(=O)Nc2ccc3[nH]nc(C)c3c2)C(c2ccc(C(F)(F)F)cc2)CC(=O)N1 (stereo not drawn)
2. NS(=O)(=O)c1ccc(N/N=C2\C(=O)Nc3ccc(C(=O)NCc4ccncc4)cc32)cc1
3. COc1ccc2ncn(-c3cc(O[C@H](C)c4ccccc4C(F)(F)F)c(C(N)=O)s3)c2c1
4. Cc1nnc(-c2cccc(-c3ccc(C(=O)NCC4CC4)cc3)c2)o1

-2.32
8.56
7.53
5.19
